- System under test: Tyrosine-protein phosphatase non-receptor type 1 (Homo sapiens)
- Assay details: Inhibition of recombinant human PTP1B assessed as inhibition of hydrolysis of pNPP at 10 uM by spectrophotometry
Measurement kind: inhibition (%)
Quick note: give the figure in %, leave out the unit.

The cases that follow already have their inhibition on record.
COc1ccc(C(=O)/C=C/c2ccc(C(=O)Nc3ccc(S(=O)(=O)Nc4nccs4)cc3)cc2)cc1: 20.7
N#Cc1ccc(C(=O)/C=C/c2ccc(C(=O)Nc3ccc(S(=O)(=O)Nc4nccs4)cc3)cc2)cc1: 68.9

Query: Form field: reported inhibition of `COc1ccc(C(=O)CCc2ccc(C(=O)Nc3ccc(S(=O)(=O)Nc4nccs4)cc3)cc2)cc1`
Reply: 75.7

Query: Item: `Cc1ccc(C(=O)/C=C/c2ccc(C(=O)Nc3ccc(S(=O)(=O)Nc4nccs4)cc3)cc2)cc1`
Reply: 79.8

###

- Assay details: Inhibition of PTPalpha (unknown origin)
- Parameters: species or system Homo sapiens
pIC50: −log10 of the molar value.
Measurement kind: pIC50

Query: Please look up its pIC50: `COc1ccc(C(=O)CCc2ccc(C(=O)Nc3ccc(S(=O)(=O)Nc4nccs4)cc3)cc2)cc1`
Reply: < 5.00

###

- System under test: Tyrosine-protein phosphatase non-receptor type 1 (Homo sapiens, UniProt P18031)
- Sequence (P18031 whole entry): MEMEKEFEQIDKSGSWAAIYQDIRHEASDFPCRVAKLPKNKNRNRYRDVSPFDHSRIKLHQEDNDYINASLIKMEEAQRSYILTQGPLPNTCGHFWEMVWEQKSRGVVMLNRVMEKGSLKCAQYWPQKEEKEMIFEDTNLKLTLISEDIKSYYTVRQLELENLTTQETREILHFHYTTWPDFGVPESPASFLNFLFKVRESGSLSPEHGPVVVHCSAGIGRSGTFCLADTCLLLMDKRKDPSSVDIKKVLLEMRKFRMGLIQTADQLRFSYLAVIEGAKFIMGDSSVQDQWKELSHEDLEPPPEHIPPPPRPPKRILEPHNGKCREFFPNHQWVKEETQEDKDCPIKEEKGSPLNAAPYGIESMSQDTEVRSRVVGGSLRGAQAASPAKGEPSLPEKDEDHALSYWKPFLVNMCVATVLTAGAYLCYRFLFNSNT
- Assay details: Inhibition of recombinant human PTP1B assessed as inhibition of hydrolysis of pNPP by spectrophotometry
# pIC50 listing for each entry below
// scale note: pIC50 = -log10(conc_M); give the bare number

Query: Lab request: please report pIC50 under test system Tyrosine-protein phosphatase non-receptor type 1 (Homo sapiens, UniProt P18031) for `N#Cc1ccc(C(=O)/C=C/c2ccc(C(=O)Nc3ccc(S(=O)(=O)Nc4nccs4)cc3)cc2)cc1`
Reply: 5.09

Query: Same thing, different molecule: `Cc1ccc(C(=O)/C=C/c2ccc(C(=O)Nc3ccc(S(=O)(=O)Nc4nccs4)cc3)cc2)cc1`
Reply: 5.08

###

- System under test: UniProtKB P17706
- Sequence (P17706 whole entry, looked up): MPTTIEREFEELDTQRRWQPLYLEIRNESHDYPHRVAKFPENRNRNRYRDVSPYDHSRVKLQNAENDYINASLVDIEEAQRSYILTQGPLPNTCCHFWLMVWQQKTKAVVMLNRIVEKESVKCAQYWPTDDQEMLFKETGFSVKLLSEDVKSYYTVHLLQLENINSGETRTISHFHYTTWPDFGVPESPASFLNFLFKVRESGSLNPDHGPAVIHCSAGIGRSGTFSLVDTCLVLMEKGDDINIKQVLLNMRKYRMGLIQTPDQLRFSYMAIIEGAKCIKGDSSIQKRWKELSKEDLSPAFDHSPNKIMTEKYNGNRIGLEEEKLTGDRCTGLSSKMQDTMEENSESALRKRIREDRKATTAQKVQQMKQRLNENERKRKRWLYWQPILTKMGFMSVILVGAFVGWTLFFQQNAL
Measurement kind: pIC50
# log scale: pIC50 equals minus log10 of the concentration in mol/L

Query: Recall the recorded pIC50 for `COc1ccc(C(=O)CCc2ccc(C(=O)Nc3ccc(S(=O)(=O)Nc4nccs4)cc3)cc2)cc1` with UniProtKB P17706 and state it.
Reply: 4.40

###

- System under test: Tyrosine-protein phosphatase non-receptor type 1 (Homo sapiens, UniProt P18031)
- Assay details: Non-competitive inhibition of recombinant human PTP1B assessed as inhibition of hydrolysis of pNPP by Lineweaver-Burk plot
Measurement kind: pKi
Friendly reminder that pKi comes from taking -log10 of the concentration in mol/L.

Query: What value of measured pKi is listed for `COc1ccc(C(=O)CCc2ccc(C(=O)Nc3ccc(S(=O)(=O)Nc4nccs4)cc3)cc2)cc1` ?
Reply: 5.24

Data origin: ChEMBL document CHEMBL2346517
